assayTarget: T1, monkey MSLN full-length protein (NCBI: XP_028696439.1) expressed on HEK293T-monkey MSLN cells (monkey)
T1 construct: Whole encoded precursor
T1 chain: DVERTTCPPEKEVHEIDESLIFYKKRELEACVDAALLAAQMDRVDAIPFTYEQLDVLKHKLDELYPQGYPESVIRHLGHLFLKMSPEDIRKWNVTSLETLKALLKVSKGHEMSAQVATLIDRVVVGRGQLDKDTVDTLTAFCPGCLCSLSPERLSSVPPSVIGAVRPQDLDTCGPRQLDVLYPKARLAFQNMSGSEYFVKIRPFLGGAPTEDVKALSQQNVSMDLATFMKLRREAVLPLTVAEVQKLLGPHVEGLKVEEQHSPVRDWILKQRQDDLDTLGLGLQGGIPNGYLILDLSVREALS
methodDescription: FACS on HEK293T-monkey MSLN cells;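 note: flow cytometry binding of chimeric antibodies to the cells, with a 2 h incubation on ice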
pEC50: −log10 of the molar value.
Listing of recorded pEC50 by entry.

binder	pEC50
S009-F7.61.21 (antibody, human IgG1, kappa, V domains shown, human-murine chimeric antibody, human IgG1/kappa constant regions) VH: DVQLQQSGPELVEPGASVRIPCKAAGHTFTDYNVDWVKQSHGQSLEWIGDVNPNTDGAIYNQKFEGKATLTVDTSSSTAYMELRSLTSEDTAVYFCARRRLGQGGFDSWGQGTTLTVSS VL: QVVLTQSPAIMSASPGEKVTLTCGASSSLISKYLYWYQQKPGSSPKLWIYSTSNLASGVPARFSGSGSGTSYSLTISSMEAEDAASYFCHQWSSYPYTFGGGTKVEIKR	9.12
S009-F7.21.16 (antibody, human IgG1, kappa, V domains shown, human-murine chimeric antibody, human IgG1/kappa constant regions) VH: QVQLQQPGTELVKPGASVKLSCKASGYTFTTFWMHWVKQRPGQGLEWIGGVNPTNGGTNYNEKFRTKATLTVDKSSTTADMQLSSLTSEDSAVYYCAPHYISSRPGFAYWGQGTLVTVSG VL: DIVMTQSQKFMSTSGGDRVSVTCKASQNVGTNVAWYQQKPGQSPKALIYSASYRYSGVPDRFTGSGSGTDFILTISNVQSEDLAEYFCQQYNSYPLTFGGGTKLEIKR	9.52
S009-F7.69.8 (antibody, human IgG1, kappa, V domains shown, human-murine chimeric antibody, human IgG1/kappa constant regions) VH: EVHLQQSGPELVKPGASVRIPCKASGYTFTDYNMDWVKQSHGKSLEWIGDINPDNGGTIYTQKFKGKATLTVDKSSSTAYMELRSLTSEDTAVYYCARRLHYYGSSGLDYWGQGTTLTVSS VL: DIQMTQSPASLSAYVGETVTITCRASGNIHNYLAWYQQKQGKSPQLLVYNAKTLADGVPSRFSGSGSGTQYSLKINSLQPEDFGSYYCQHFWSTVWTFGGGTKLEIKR	7.90
S009-F7.48.1 (antibody, human IgG1, kappa, V domains shown, human-murine chimeric antibody, human IgG1/kappa constant regions) VH: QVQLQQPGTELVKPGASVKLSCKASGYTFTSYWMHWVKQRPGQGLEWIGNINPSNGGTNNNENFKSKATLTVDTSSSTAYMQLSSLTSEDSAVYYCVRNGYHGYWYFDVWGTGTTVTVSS VL: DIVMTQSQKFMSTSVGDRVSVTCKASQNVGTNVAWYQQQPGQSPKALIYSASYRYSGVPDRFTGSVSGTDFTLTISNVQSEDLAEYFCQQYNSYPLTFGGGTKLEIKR	8.54
